Values were extracted from ChEMBL document CHEMBL5247574.

Test: Clearance in mouse liver microsomes
Assay type: ADME, Microsome
Conditions: liver microsomes, read-out: CLH
outcome_measure: microsomal CLint (µL/min/mg)
# output: bare number, implied unit µL/min/mg

Prompt: Tell me measured microsomal CLint for O=C(Nc1nnn[nH]1)c1cc(Cl)c(Oc2ncccc2C(=O)N2CCN(C3CC3)c3ccccc32)cc1Cl please.
Completion: 56

====

Kindly state EC50 for each of the entries shown.
Target: G-protein coupled bile acid receptor 1 (Mus musculus)
Sequence (Q80SS6 whole entry): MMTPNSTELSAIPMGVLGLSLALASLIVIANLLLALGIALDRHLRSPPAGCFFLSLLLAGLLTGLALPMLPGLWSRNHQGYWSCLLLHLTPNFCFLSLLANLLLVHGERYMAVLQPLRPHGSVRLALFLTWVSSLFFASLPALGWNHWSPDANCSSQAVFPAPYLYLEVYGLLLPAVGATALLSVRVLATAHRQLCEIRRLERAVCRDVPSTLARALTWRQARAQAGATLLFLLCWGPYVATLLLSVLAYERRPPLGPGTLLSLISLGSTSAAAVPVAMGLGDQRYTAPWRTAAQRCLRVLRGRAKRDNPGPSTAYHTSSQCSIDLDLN
Assay: Agonist activity at mouse TGR5
Write the answer as a number in µM, unit excluded.

Prompt: Recall the reported EC50 of O=C(c1cccnc1Oc1cccc(C(F)(F)F)c1)N1CCCc2ccccc21 on G-protein coupled bile acid receptor 1 (Mus musculus) and write it down.
Completion: 2.02

Prompt: Quote G-protein coupled bile acid receptor 1 (Mus musculus) EC50 for entry O=C(Nc1nnn[nH]1)c1cc(Cl)c(Oc2ncccc2C(=O)N2CCN(C3CC3)c3ccccc32)cc1Cl .
Completion: 0.35

Prompt: Look up G-protein coupled bile acid receptor 1 (Mus musculus) data: EC50 of O=C(c1cccnc1Oc1cc(Cl)ccc1Cl)N1CCCc2ccccc21 , then report it.
Completion: 2.56
